# MEASUREMENT TARGET: T1, recombinant biotinylated human PAR2 extracellular domain (residues 1-75), N-terminal AviTag, C-terminal Flag … (human, UniProt P55085 26-75, biotin on the AviTag (enzymatic biotinylation))
# T1 construct: also called Bio-human-PAR2 ECD; human PAR2 ECD; not shown: N-terminal AviTag (Avidity LLC); C-terminal Flag and poly Histidine tags
# T1 sequence (P55085 26-75): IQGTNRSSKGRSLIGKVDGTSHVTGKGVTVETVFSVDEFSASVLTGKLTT
# PROCEDURE DETAILS: HTRF competition with Dylight650-Par0067 IgG, IgG
MEASUREMENT LABEL: Fold IC50 (pH 6.0 v pH 7.4) (fold)
Record the value in fold, omitting the unit from your answer.

PaB670144 IgG (antibody, V domains shown, IgG1-TM (L234F, L235E, P331S), human lambda light chain) VH: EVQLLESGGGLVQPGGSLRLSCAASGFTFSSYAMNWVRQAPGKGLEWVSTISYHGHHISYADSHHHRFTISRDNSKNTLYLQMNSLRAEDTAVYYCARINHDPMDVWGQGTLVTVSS VL: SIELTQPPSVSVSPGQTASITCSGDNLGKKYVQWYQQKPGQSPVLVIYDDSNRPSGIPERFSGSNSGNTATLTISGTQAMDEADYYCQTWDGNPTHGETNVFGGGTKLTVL
19.5
PaB670162 IgG (antibody, V domains shown, IgG1-TM (L234F, L235E, P331S), human lambda light chain) VH: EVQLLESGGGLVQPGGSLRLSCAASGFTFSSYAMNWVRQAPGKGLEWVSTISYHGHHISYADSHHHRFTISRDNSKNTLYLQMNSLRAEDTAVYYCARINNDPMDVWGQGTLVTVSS VL: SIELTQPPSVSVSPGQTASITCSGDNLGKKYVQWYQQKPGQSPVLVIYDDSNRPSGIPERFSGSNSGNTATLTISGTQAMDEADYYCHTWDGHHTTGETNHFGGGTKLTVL
79.5
PaB670148 IgG (antibody, V domains shown, IgG1-TM (L234F, L235E, P331S), human lambda light chain) VH: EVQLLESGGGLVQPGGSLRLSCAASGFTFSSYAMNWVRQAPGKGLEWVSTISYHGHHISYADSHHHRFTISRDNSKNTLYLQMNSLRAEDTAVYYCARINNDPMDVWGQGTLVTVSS VL: SIELTQPPSVSVSPGQTASITCSGDNLGKKYVQWYQQKPGQSPVLVIYDDSNRPSGIPERFSGSNSGNTATLTISGTQAMDEADYYCHTWHHHPTHGEHNVFGGGTKLTVL
17.4

Here is the next item to consider.
Data request: Looking for the measured Fold IC50 (pH 6.0 v pH 7.4) of PaB670161 IgG (antibody, V domains shown, IgG1-TM (L234F, L235E, P331S), human lambda light chain) VH: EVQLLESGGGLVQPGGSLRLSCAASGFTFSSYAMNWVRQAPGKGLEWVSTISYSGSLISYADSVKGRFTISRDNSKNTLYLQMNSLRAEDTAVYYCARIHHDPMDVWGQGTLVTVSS VL: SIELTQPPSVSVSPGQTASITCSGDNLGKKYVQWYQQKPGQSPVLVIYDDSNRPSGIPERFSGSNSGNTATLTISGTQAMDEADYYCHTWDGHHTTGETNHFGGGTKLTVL , can you help?
Data returned: 39.6
